- Protocol Notes: p53 small molecule agonists, cell-based qHTS assay with human liver microsomes (AID 1963577);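 note: p53 response element beta-lactamase reporter cells with liver microsomes plus NADPH; % is set by controls: 0 for no effect and ±100 for the full control effect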
- Condition Details: HCT-116 p53RE-bla with human liver microsomes, ratio, 16 h; series mostly up to 66 µM
Inconclusive results are not listed. The source made the active and inactive calls. Calls come from the whole dose curve.
Property Name: activation

Worked set:
ICCc1ccccc1 : inactive
O=c1[nH]c(=O)n([C@H]2C[C@H](O)[C@@H](CO)O2)cc1I : inactive
Nc1ccc(S(=O)(=O)Nc2ccccc2)cc1 : inactive
O=C(O)CNCC(=O)O : 0.261% [at 5.99 µM] (inactive)

Now consider a different compound.
Any idea what activation was measured for CC(C)(C)C(=O)Oc1ccc(S(=O)(=O)Nc2ccccc2C(=O)NCC(=O)O)cc1 ?
inactive
